Biological target: Peroxisome proliferator-activated receptor gamma (Homo sapiens, UniProt P37231)
Sequence (P37231 whole entry): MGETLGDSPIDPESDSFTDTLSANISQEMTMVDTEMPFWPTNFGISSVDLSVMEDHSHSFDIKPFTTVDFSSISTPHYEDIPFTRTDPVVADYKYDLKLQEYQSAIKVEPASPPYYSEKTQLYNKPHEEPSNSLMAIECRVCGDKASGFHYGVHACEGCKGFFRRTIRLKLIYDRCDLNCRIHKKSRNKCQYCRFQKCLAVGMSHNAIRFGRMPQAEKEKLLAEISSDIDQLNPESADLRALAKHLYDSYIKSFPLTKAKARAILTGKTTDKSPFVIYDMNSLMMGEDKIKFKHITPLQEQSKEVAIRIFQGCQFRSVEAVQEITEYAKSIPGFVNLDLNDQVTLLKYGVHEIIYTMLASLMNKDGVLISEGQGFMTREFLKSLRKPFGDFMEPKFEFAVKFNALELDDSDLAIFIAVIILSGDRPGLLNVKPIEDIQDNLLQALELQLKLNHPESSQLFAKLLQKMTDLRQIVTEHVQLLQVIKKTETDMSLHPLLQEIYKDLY
pIC50: −log10 of the molar value.
property_name: pIC50

Use the examples below as a reference point.
{"compound": "Cc1oc(-c2ccccc2)nc1CCOc1cccc(C[C@@H]2CN(c3ccccc3)C[C@@H]2C(=O)O)c1", "pIC50": 7.10}
{"compound": "Cc1oc(-c2ccccc2)nc1CCOc1ccc(C[C@@H]2CN(c3nccc(C(F)(F)F)n3)C[C@@H]2C(=O)O)cc1", "pIC50": 7.70}
{"compound": "Cc1oc(-c2ccccc2)nc1CCOc1cccc(C[C@@H]2CN(C(=O)Oc3ccccc3)C[C@@H]2C(=O)O)c1", "pIC50": 6.31}
{"compound": "Cc1oc(-c2ccccc2)nc1CCOc1ccc(CC[C@@H]2CN(C(=O)Oc3ccccc3)C[C@@H]2C(=O)O)cc1 (racemic)", "pIC50": 7.05}
{"compound": "CCOC(=O)N1C[C@@H](CCc2ccc(OCCc3nc(-c4ccccc4)oc3C)cc2)[C@@H](C(=O)O)C1 (racemic)", "pIC50": 6.16}

1 = Cc1oc(-c2ccccc2)nc1CCOc1cccc(C[C@@H]2CN(c3ccccc3)C[C@@H]2C(=O)O)c1 (racemic)
2 = Cc1oc(-c2ccccc2)nc1CCOc1cccc(C[C@@H]2CN(c3nccc(C(F)(F)F)n3)C[C@@H]2C(=O)O)c1
Among 1 and 2 , whose measured pIC50 is the smaller figure? # answer = label of selected item
1

I = Cc1oc(-c2ccccc2)nc1CCOc1ccc(CC[C@H]2CN(C(=O)Oc3ccccc3)C[C@@H]2C(=O)O)cc1 (racemic)
II = Cc1oc(-c2ccccc2)nc1CCOc1ccc(C[C@@H]2CN(c3nccc(C(F)(F)F)n3)C[C@@H]2C(=O)O)cc1 (racemic)
III = Cc1oc(-c2ccccc2)nc1CCOc1cccc(C[C@H]2CN(C(=O)Oc3ccccc3)C[C@@H]2CC(=O)O)c1 (racemic)
IV = CCOC(=O)N1C[C@H](CCc2ccc(OCCc3nc(-c4ccccc4)oc3C)cc2)[C@@H](C(=O)O)C1 (racemic)
Please give the order of these compounds when sorted by pIC50, largest value leading. I would appreciate it if you listed the labels in the requested order.
II, III, I, IV
(II: 7.52, III: 6.68, I: 6.47, IV: 5.80)

a = Cc1oc(-c2ccccc2)nc1CCOc1cccc([C@@H]2CN(C(=O)Oc3ccccc3)C[C@@H]2CC(=O)O)c1 (racemic)
b = Cc1ccnc(N2C[C@@H](Cc3ccc(OCCc4nc(-c5ccccc5)oc4C)cc3)[C@@H](C(=O)O)C2)n1 (racemic)
Compare pIC50: is it lower for a or for b ? Use the label to indicate which entry you chose.
b

Measured values drawn from ChEMBL document CHEMBL3396995 for this set.
